The following compounds are shown together with reported residual activity values.
# assay_system: MELK (human)
# test_method_notes: radiometric filter-binding kinase assay, Kinase HotSpot
# condition_details: compound 0.5 µM; ATP 10 µM
Give just the numeric value; % need not be written.

{"columns": ["compound", "residual activity [%]"],
 "data": [
  ["Cc1ccc(NC2=CC(=O)c3sc(C)nc3C2=O)cc1", 93.2]
]}

Enquiry: Identify residual activity associated with the compound CO[C@H]1CC2CC[C@@H](C)[C@@](O)(O2)C(=O)C(=O)N2CCCC[C@H]2C(=O)OC([C@H](C)C[C@@H]2CC[C@@H](O)[C@H](OC)C2)CC(=O)[C@H](C)/C=C(\C)[C@@H](O)[C@@H](OC)C(=O)[C@H](C)C[C@H](C)/C=C/C=C/C=C/1C (stereo not given in full)
Return: 97.8

Enquiry: Identify residual activity associated with the compound Cc1ccc(S(=O)(=O)/C=C/C#N)cc1
Return: 92

Enquiry: Identify residual activity associated with the compound N#C/C(=C(/N)Sc1ccc(N)cc1)c1ccccc1C(F)(F)F
Return: 96.1

Enquiry: Identify residual activity associated with the compound c1ccc(-c2n[nH]cc2-c2ccnc3ccccc23)nc1
Return: 93.3
